# test: qHTS for Inhibitors of human tyrosyl-DNA phosphodiesterase 1 (TDP1): qHTS in cells in absence of CPT; also: nearly all actives have a fitted effect of over 55% in size; also: potency is read from the fitted curve at half-maximal effect
# condition notes: DT40 Tdp1-/- hTDP1 cells, no CPT, ATP luminescence, 48 h
About 64,000 (15%) of roughly 420,000 compounds were called active. About 27% were inconclusive and are not listed. The list is a sample of the results.
assay metric: Potency

Field: example entries. Status: answers known.
>  <compound>
O=C(COc1ccccc1)Nc1cc2c3c(c1)CC(=O)N3CCC2

>  <Potency>
inactive

$$$$
>  <compound>
CCS(=O)(=O)N1CCCC(C(=O)NCCCN(C)Cc2ccccc2)C1 (stereo unspecified)

>  <Potency>
inactive

$$$$
>  <compound>
CCCn1nnnc1NCc1ccc(CC)cc1

>  <Potency>
inactive

$$$$
>  <compound>
Cc1cc2nc(-c3ccc(Cl)cc3)c(Cc3cccc(F)c3)n2c(C)c1Br

>  <Potency>
23.1 µM (active)

$$$$

GET /value?item= O=C(c1ccccc1)c1ccc2nc(N3CCCCC3)c3nncn3c2c1 &field=Potency returns 13 µM (active)

GET /value?item= O=C(c1ccccc1)c1ccc(OC(=O)N2CCCC2)cc1 &field=Potency returns inactive

GET /value?item= CC(C)(C)C(=O)Cn1c(NCCO)nc2ccccc21 &field=Potency returns inactive
